Tested on: Pseudomonas aeruginosa
procedure.summary: Antibacterial activity against Pseudomonas aeruginosa ATCC 27853 after 24 hrs by agar well diffusion method
Type: functional
assay.setup: ATCC 27853, 24 h
assay.metric: log10 MIC (log10 of the value in µg/mL)

>>> reported_result("N#C/C(=C\\c1cnc(N)nc1N)c1nc2ccccc2s1")
0.00
>>> reported_result("N#C/C(=C\\c1cnc(NCc2ccccc2)nc1)c1nc2ccccc2s1")
1.26
>>> reported_result("CN(C)c1ncc(/C=C(\\C#N)c2nc3ccccc3[nH]2)cn1")
1.05
>>> reported_result("N#C/C(=C\\c1cnc(N2CCOCC2)nc1)c1nc2ccccc2s1")
1.55
>>> reported_result("N#C/C(=C\\c1cnc(Nc2ccc(Cl)cc2)nc1)c1nc2ccccc2[nH]1")
0.95
>>> reported_result("CC1(C)S[C@@H]2[C@H](NC(=O)[C@H](N)c3ccc(O)cc3)C(=O)N2[C@H]1C(=O)O")
0.00
>>> reported_result("CN(C)c1ncc(/C=C(\\C#N)c2nc3ccccc3s2)cn1")
1.55
>>> reported_result("N#C/C(=C\\c1cnc(NCc2ccccc2)nc1)c1nc2ccccc2[nH]1")
1.26
>>> reported_result("N#C/C(=C\\c1cnc(N2CCOCC2)nc1)c1nc2ccccc2[nH]1")
1.44
>>> reported_result("N#C/C(=C\\c1cnc(Nc2ccc(Cl)cc2)nc1)c1nc2ccccc2s1")
1.05
